experiment: Drug uptake in human Hep3B cells assessed as increase in mean fluorescence intensity at 10 uM incubated for 1 hr by flow cytometry analysis; assay type: ADME, cell-based; details: hep 3b2, 1 h
ENDPOINT_LABEL: Drug uptake

- SMILES_INPUT: "CC1(C)C(/C=C/C=C/C=C/C=C2/N(CCCCS(=O)(=O)[O-])c3cccc(I)c3C2(C)C)=[N+](CCCCS(=O)(=O)[O-])c2ccc3ccccc3c21.[Na+]"
  ENDPOINT_LABEL: "Drug uptake"
  OBSERVED_RESULT: "Active"
- SMILES_INPUT: "CC1(C)C(/C=C/C=C/C=C/C=C2/N(CCCCS(=O)(=O)[O-])c3cc(I)ccc3C2(C)C)=[N+](CCCCS(=O)(=O)[O-])c2cc(I)ccc21.[Na+]"
  ENDPOINT_LABEL: "Drug uptake"
  OBSERVED_RESULT: "Active"
- SMILES_INPUT: "CC1(C)C(/C=C/C=C/C=C/C=C2/N(CCCCS(=O)(=O)[O-])c3cccc(I)c3C2(C)C)=[N+](CCCCS(=O)(=O)[O-])c2cccc(I)c21.[Na+]"
  ENDPOINT_LABEL: "Drug uptake"
  OBSERVED_RESULT: "Active"
- SMILES_INPUT: "CC1(C)C(/C=C/C=C/C=C/C=C2/N(CCCCS(=O)(=O)[O-])c3ccc(I)cc3C2(C)C)=[N+](CCCCS(=O)(=O)[O-])c2ccc(I)cc21.[Na+]"
  ENDPOINT_LABEL: "Drug uptake"
  OBSERVED_RESULT: "Active"

src = ChEMBL document CHEMBL5370595
